System: HUVEC/MSC spheroids viability
Assay: Human HUVEC/MSC cell line growth inhibition [KRAS2];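 further: percent of DMSO vehicle control luminescence so 100% = untreated viability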
Settings: second compound 0.3 µM; first compound 0.1 µM; stronger effect = lower value
Source text: Multicellular complex tumor spheroid response to RAS pathway inhibitors in combination with a targeted agents in patient-derived cell lines with oncogenic KRAS variants from multiple cancer types A high-throughput screen of multi-cell type tumor spheroids was designed to identify active combinations of targeted small molecules and KRAS pathway inhibitors. […] Compounds. […] If the clinical Cmax for an agent had not been determined, the highest concentration tested was 10 microM. […]
measured_parameter: viability, T/C (%)
Your answer is read as %, so omit the unit and give the number.

{"compound": "CC(C)n1nc(-c2ccc3oc(N)nc3c2)c2c(N)ncnc21 + C=CC(=O)N1CCN(c2nc(OCC3CCCN3C)nc3c2CCN(c2cccc4cccc(C)c24)C3)CC1CC#N", "unit_of_measurement": "%", "assay_result": 36}
{"compound": "CC1(C)CCC(CN2CCN(c3ccc(C(=O)NS(=O)(=O)c4ccc(NCC5CCOCC5)c([N+](=O)[O-])c4)c(Oc4cnc5[nH]ccc5c4)c3)CC2)=C(c2ccc(Cl)cc2)C1 + C=CC(=O)N1CCN(c2nc(OCC3CCCN3C)nc3c2CCN(c2cccc4cccc(C)c24)C3)CC1CC#N", "unit_of_measurement": "%", "assay_result": 75.9}
{"compound": "CN(C)C/C=C/C(=O)Nc1cc2c(Nc3ccc(F)c(Cl)c3)ncnc2cc1O[C@H]1CCOC1 + C=CC(=O)N1CCN(c2nc(OCC3CCCN3C)nc3c2CCN(c2cccc4cccc(C)c24)C3)CC1CC#N", "unit_of_measurement": "%", "assay_result": 63}

Query string: Could you please provide reported viability, T/C for CCN1CCN(Cc2ccc(Nc3ncc(F)c(-c4cc(F)c5nc(C)n(C(C)C)c5c4)n3)nc2)CC1 + C=CC(=O)N1CCN(c2nc(OCC3CCCN3C)nc3c2CCN(c2cccc4cccc(C)c24)C3)CC1CC#N ? Thanks!
Result string: 81.3

Query string: Could you please provide reported viability, T/C for Cn1ncnc1[C@H]1c2n[nH]c(=O)c3cc(F)cc(c23)N[C@@H]1c1ccc(F)cc1 + C=CC(=O)N1CCN(c2nc(OCC3CCCN3C)nc3c2CCN(c2cccc4cccc(C)c24)C3)CC1CC#N ? Thanks!
Result string: 86.2

====

# viability, T/C per entry
Tested on: HUVEC/MSC spheroids viability
Assay: Human HUVEC/MSC cell line growth inhibition [KRAS2];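 further: percent of DMSO vehicle control luminescence so 100% = untreated viability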
Conditions: second compound 3.16 µM; first compound 0.316 µM; stronger effect = lower value
From the text: Multicellular complex tumor spheroid response to RAS pathway inhibitors in combination with a targeted agents in patient-derived cell lines with oncogenic KRAS variants from multiple cancer types A high-throughput screen of multi-cell type tumor spheroids was designed to identify active combinations of targeted small molecules and KRAS pathway inhibitors. […] Compounds. […] If the clinical Cmax for an agent had not been determined, the highest concentration tested was 10 microM. […]
Your answer is read as %, so omit the unit and give the number.

{"molecule": "COc1cc(Nc2ncc3c(n2)-c2ccc(Cl)cc2C(c2c(F)cccc2OC)=NC3)ccc1C(=O)O + CNCc1ccccc1-c1csc(C(C)Nc2nc(C)nc3cc(OC)c(OC)cc23)c1", "target_or_test_system": "HUVEC/MSC spheroids viability", "assay_result": 97.8}
{"molecule": "COC(=O)c1ccc2c(C(=Nc3ccc(N(C)C(=O)CN4CCN(C)CC4)cc3)c3ccccc3)c(O)[nH]c2c1 + CNCc1ccccc1-c1csc(C(C)Nc2nc(C)nc3cc(OC)c(OC)cc23)c1", "target_or_test_system": "HUVEC/MSC spheroids viability", "assay_result": 84}
{"molecule": "CC1OCC2(CCN(c3cnc(Sc4ccnc(N)c4Cl)c(N)n3)CC2)C1N (stereo unspecified) + COc1cc2nc(C)nc(NC(C)c3cc(N)cc(C(F)(F)F)c3)c2cc1OC1CCOC1", "target_or_test_system": "HUVEC/MSC spheroids viability", "assay_result": 86.9}
{"molecule": "CC(C)NCC(C(=O)N1CCN(c2ncnc3c2C(C)CC3O)CC1)c1ccc(Cl)cc1 (stereo unspecified) + CNCc1ccccc1-c1csc(C(C)Nc2nc(C)nc3cc(OC)c(OC)cc23)c1", "target_or_test_system": "HUVEC/MSC spheroids viability", "assay_result": 89.4}
{"molecule": "O=C(c1cc(Cc2n[nH]c(=O)c3ccccc23)ccc1F)N1CCN(C(=O)C2CC2)CC1 + CC1OCC2(CCN(c3cnc(Sc4ccnc(N)c4Cl)c(N)n3)CC2)C1N", "target_or_test_system": "HUVEC/MSC spheroids viability", "assay_result": 91.8}

For the next question, use this molecule.
Query string: Could you please provide reported viability, T/C for CC1OCC2(CCN(c3cnc(Sc4ccnc(N)c4Cl)c(N)n3)CC2)C1N (stereo unspecified) + CNCc1ccccc1-c1csc(C(C)Nc2nc(C)nc3cc(OC)c(OC)cc23)c1 ? Thanks!
Result string: 82

====

Test system: HUVEC/MSC spheroids viability
Assay: Human HUVEC/MSC cell line growth inhibition [KRAS2];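 further: percent of DMSO vehicle control luminescence so 100% = untreated viability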
Conditions: second compound 0.949 µM; first compound 1 µM; stronger effect = lower value
Please map values of viability, T/C to classes as shown: lo (below 70%), mid (70% to below 90%), hi (90% or more)

Query string: Sort into band: CC(C)NCC(C(=O)N1CCN(c2ncnc3c2C(C)CC3O)CC1)c1ccc(Cl)cc1 (stereo not given) + C=CC(=O)N1CCN(c2nc(OCC3CCCN3C)nc3c2CCN(c2cccc4cccc(C)c24)C3)CC1CC#N
Result string: lo

====

# viability, T/C per entry
Test system: HUVEC/MSC spheroids viability
Assay: Human HUVEC/MSC cell line growth inhibition [KRAS2];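 further: percent of DMSO vehicle control luminescence so 100% = untreated viability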
Conditions: compound 0.0316 µM; stronger effect = lower value
Text: Multicellular complex tumor spheroid response to RAS pathway inhibitors in combination with a targeted agents in patient-derived cell lines with oncogenic KRAS variants from multiple cancer types A high-throughput screen of multi-cell type tumor spheroids was designed to identify active combinations of targeted small molecules and KRAS pathway inhibitors. […] Compounds. […] If the clinical Cmax for an agent had not been determined, the highest concentration tested was 10 microM. […]

Query string: Could you please provide reported viability, T/C for CC(C)n1nc(-c2ccc3oc(N)nc3c2)c2c(N)ncnc21 ? Thanks!
Result string: 47.5% [middle of 5 runs]

Query string: Could you please provide reported viability, T/C for Cn1ncnc1[C@H]1c2n[nH]c(=O)c3cc(F)cc(c23)N[C@@H]1c1ccc(F)cc1 ? Thanks!
Result string: 88.1% [middle of 5 runs]

Query string: Could you please provide reported viability, T/C for COc1cc(OC)cc(N(CCNC(C)C)c2ccc3ncc(-c4cnn(C)c4)nc3c2)c1 ? Thanks!
Result string: 60.9% [middle of 5 runs]

Query string: Could you please provide reported viability, T/C for COc1cc2nc(C)nc(NC(C)c3cc(N)cc(C(F)(F)F)c3)c2cc1OC1CCOC1 (configuration not stated) ? Thanks!
Result string: 99.5% [middle of 9 runs]

Query string: Could you please provide reported viability, T/C for C=CC(=O)N1CCN(c2nc(=O)n(-c3c(C)ccnc3C(C)C)c3nc(-c4c(O)cccc4F)c(F)cc23)C(C)C1 (configuration not stated) ? Thanks!
Result string: 99.5% [middle of 9 runs]

Query string: Could you please provide reported viability, T/C for Cn1nccc1Nc1nccc(-c2cc3c(s2)C(C)(C)N(CCN2CCOCC2)C3=O)n1 ? Thanks!
Result string: 91.1% [middle of 5 runs]

Query string: Could you please provide reported viability, T/C for CC1(C)CCC(CN2CCN(c3ccc(C(=O)NS(=O)(=O)c4ccc(NCC5CCOCC5)c([N+](=O)[O-])c4)c(Oc4cnc5[nH]ccc5c4)c3)CC2)=C(c2ccc(Cl)cc2)C1 ? Thanks!
Result string: 90.6% [middle of 5 runs]

====

System: HUVEC/MSC spheroids viability
Test: Human HUVEC/MSC cell line growth inhibition [KRAS2];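 further: percent of DMSO vehicle control luminescence so 100% = untreated viability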
Conditions: second compound 1 µM; first compound 1 µM; stronger effect = lower value
# viability, T/C per entry
Your answer is read as %, so omit the unit and give the number.

Some solved cases for reference:
{"compound": "CC1(C)CCC(CN2CCN(c3ccc(C(=O)NS(=O)(=O)c4ccc(NCC5CCOCC5)c([N+](=O)[O-])c4)c(Oc4cnc5[nH]ccc5c4)c3)CC2)=C(c2ccc(Cl)cc2)C1 + COc1cc2nc(C)nc(NC(C)c3cc(N)cc(C(F)(F)F)c3)c2cc1OC1CCOC1", "target_or_test_system": "HUVEC/MSC spheroids viability", "viability, T/C (%)": 92}
{"compound": "Cn1nccc1Nc1nccc(-c2cc3c(s2)C(C)(C)N(CCN2CCOCC2)C3=O)n1 + COc1cc2nc(C)nc(NC(C)c3cc(N)cc(C(F)(F)F)c3)c2cc1OC1CCOC1", "target_or_test_system": "HUVEC/MSC spheroids viability", "viability, T/C (%)": 106}
{"compound": "CC(C)NCC(C(=O)N1CCN(c2ncnc3c2C(C)CC3O)CC1)c1ccc(Cl)cc1 (centres undefined) + CNCc1ccccc1-c1csc(C(C)Nc2nc(C)nc3cc(OC)c(OC)cc23)c1", "target_or_test_system": "HUVEC/MSC spheroids viability", "viability, T/C (%)": 71.3}
{"compound": "CC1(C)CCC(CN2CCN(c3ccc(C(=O)NS(=O)(=O)c4ccc(NCC5CCOCC5)c([N+](=O)[O-])c4)c(Oc4cnc5[nH]ccc5c4)c3)CC2)=C(c2ccc(Cl)cc2)C1 + CNCc1ccccc1-c1csc(C(C)Nc2nc(C)nc3cc(OC)c(OC)cc23)c1", "target_or_test_system": "HUVEC/MSC spheroids viability", "viability, T/C (%)": 76.6}
{"compound": "COc1cc(Nc2ncc3c(n2)-c2ccc(Cl)cc2C(c2c(F)cccc2OC)=NC3)ccc1C(=O)O + C=CC(=O)N1CCN(c2nc(=O)n(-c3c(C)ccnc3C(C)C)c3nc(-c4c(O)cccc4F)c(F)cc23)C(C)C1", "target_or_test_system": "HUVEC/MSC spheroids viability", "viability, T/C (%)": 127}
{"compound": "COC(=O)c1ccc2c(C(=Nc3ccc(N(C)C(=O)CN4CCN(C)CC4)cc3)c3ccccc3)c(O)[nH]c2c1 + C=CC(=O)N1CCN(c2nc(=O)n(-c3c(C)ccnc3C(C)C)c3nc(-c4c(O)cccc4F)c(F)cc23)C(C)C1", "target_or_test_system": "HUVEC/MSC spheroids viability", "viability, T/C (%)": 75}
{"compound": "COc1cc2nccc(Oc3ccc(NC(=O)C4(C(=O)Nc5ccc(F)cc5)CC4)cc3)c2cc1OC + COc1cc2nc(C)nc(NC(C)c3cc(N)cc(C(F)(F)F)c3)c2cc1OC1CCOC1", "target_or_test_system": "HUVEC/MSC spheroids viability", "viability, T/C (%)": 85.2}
{"compound": "CC1(C)CCC(CN2CCN(c3ccc(C(=O)NS(=O)(=O)c4ccc(NCC5CCOCC5)c([N+](=O)[O-])c4)c(Oc4cnc5[nH]ccc5c4)c3)CC2)=C(c2ccc(Cl)cc2)C1 + C=CC(=O)N1CCN(c2nc(=O)n(-c3c(C)ccnc3C(C)C)c3nc(-c4c(O)cccc4F)c(F)cc23)C(C)C1", "target_or_test_system": "HUVEC/MSC spheroids viability", "viability, T/C (%)": 115}

Query string: Provide measured viability, T/C on HUVEC/MSC spheroids viability for CCNC(=O)CC1N=C(c2ccc(Cl)cc2)c2cc(OC)ccc2-n2c(C)nnc21 (centres undefined) + CNCc1ccccc1-c1csc(C(C)Nc2nc(C)nc3cc(OC)c(OC)cc23)c1 please.
Result string: 99.4
